biological target: CYP3A4 (Homo sapiens); assay: Inhibition of human CYP3A4 at 10 uM; assay type: ADME
Sequence (P08684 whole entry): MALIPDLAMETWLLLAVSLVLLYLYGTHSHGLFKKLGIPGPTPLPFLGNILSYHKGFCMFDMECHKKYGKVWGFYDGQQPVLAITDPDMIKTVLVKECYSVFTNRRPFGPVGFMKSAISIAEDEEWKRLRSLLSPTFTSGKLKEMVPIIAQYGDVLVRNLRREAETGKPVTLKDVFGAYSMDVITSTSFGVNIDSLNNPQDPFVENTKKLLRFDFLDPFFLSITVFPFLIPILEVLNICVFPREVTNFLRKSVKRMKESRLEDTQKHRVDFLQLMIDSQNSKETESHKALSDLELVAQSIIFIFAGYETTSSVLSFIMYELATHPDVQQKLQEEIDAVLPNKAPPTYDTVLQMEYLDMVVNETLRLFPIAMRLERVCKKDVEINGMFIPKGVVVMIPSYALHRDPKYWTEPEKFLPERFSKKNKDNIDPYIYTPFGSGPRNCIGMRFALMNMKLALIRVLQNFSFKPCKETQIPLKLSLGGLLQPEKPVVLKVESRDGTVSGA
measured.endpoint: inhibition at 10 µM (%)
Write the number in % without appending the unit.

Use the examples below as a reference point.
O=C(Nc1nc(-c2ccncc2)cs1)C1COc2ccccc2O1 (stereo not given)
80
CN(C)CCOc1cc(-c2cn[nH]c2)ccc1NC(=O)C1COc2ccccc2O1 (stereo not given) [SR-3677]
0
O=C(Nc1ccc(-c2c[nH]cn2)cc1)C1COc2ccccc2O1 (stereo not given)
1
O=C(Nc1ccc(-c2ccncc2)cc1)C1COc2ccccc2O1 (stereo not given)
51

Next up:
Q: inhibition at 10 µM lookup needed for COc1cc(-c2cn[nH]c2)ccc1NC(=O)C1COc2ccccc2O1 (stereo not given) , thanks.
Ans: 36

---

assay: Clearance in Sprague-Dawley rat at 1 mg/kg, iv; details: in vivo
Friendly reminder: clearance below 20 mL/min/kg is 1.0, at or above is 0.0.

CN(C)CCOc1cc(-c2cn[nH]c2)ccc1NC(=O)C1COc2ccccc2O1 (stereo not given)
0.0
O=C(Nc1nc(-c2ccncc2)cs1)C1COc2ccccc2O1 (stereo not given)
0.0
O=C(Nc1ccc(-c2ccncc2)cc1)C1COc2ccccc2O1 (stereo not given)
0.0
O=C(Nc1ccc(-c2c[nH]cn2)cc1)C1COc2ccccc2O1 (stereo not given)
1.0

Q: Confirm or reject: clearance of COc1cc(-c2cn[nH]c2)ccc1NC(=O)C1COc2ccccc2O1 (stereo not given) lies strictly below 20 mL/min/kg
Ans: 1.0

---

biological target: RAC-alpha serine/threonine-protein kinase (Homo sapiens)
Sequence (P31749 whole entry): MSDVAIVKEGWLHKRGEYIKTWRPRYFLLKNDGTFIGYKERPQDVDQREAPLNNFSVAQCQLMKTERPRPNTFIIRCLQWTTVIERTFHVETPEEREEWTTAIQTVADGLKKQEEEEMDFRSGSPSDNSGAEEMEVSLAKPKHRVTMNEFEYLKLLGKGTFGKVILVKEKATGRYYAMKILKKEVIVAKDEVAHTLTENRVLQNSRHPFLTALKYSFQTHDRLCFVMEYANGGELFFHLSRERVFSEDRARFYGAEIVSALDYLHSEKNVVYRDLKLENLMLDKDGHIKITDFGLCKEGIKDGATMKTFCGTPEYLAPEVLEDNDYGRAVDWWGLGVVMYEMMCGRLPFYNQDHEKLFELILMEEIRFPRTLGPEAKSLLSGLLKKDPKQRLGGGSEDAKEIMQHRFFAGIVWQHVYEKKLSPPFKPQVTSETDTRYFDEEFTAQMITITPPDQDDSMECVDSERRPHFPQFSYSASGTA
molecules and their reported pIC50
Note on pIC50: it is the negative log10 of concentration, concentration in mol/L.

CN(C)CCOc1cc(-c2cn[nH]c2)ccc1NC(=O)C1COc2ccccc2O1 (stereo not drawn)
5.13

Continue with the next molecule.
Q: If you can, please state the reported pIC50 value of COc1cc(-c2cn[nH]c2)ccc1NC(=O)C1COc2ccccc2O1 (stereo not drawn) .
Ans: 5.05

---

assay: in vivo; settings: Sprague-Dawley, rat, plasma, iv, 1 mg/kg
List of AUC values.

Q: Field request: AUC | item: O=C(Nc1ccc(-c2ccncc2)cc1)C1COc2ccccc2O1 (stereo not given)
Ans: 300 nM·h

---

assay: in vivo; conditions: Sprague-Dawley, rat, po, 2 mg/kg
measured.endpoint: Cmax (nM)
The response must be a number in nM with no trailing unit.

CN(C)CCOc1cc(-c2cn[nH]c2)ccc1NC(=O)C1COc2ccccc2O1 (stereo not drawn) [SR-3677]
50
COc1cc(-c2cn[nH]c2)ccc1NC(=O)C1COc2ccccc2O1 (stereo not drawn)
120

We next turn to a different compound, shown below.
Q: Find the recorded Cmax belonging to O=C(Nc1ccc(-c2c[nH]cn2)cc1)C1COc2ccccc2O1 (stereo not drawn) and report it.
Ans: 20

---

biological target: CYP2D6 (Homo sapiens, UniProt P10635); experiment: Inhibition of human CYP2D6 at 10 uM; format: ADME
Sequence (P10635 whole entry): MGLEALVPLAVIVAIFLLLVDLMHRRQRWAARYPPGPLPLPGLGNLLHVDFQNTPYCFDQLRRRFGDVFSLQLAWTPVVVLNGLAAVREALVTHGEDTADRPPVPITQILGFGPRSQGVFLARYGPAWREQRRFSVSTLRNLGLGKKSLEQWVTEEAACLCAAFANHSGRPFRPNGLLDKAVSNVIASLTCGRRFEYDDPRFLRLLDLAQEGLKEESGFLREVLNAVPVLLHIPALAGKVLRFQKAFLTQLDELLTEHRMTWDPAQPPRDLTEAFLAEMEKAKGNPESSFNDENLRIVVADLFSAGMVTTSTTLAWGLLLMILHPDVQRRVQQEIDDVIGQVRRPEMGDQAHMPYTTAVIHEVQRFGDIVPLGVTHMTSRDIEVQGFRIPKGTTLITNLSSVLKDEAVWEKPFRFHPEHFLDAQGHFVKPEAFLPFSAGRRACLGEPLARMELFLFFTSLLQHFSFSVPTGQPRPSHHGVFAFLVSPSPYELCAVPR
We use 40% as the dividing line for inhibition at 10 µM: on or above the line is Condition met, below is Condition not met.

A selection of reference data follows.
O=C(Nc1nc(-c2ccncc2)cs1)C1COc2ccccc2O1 (stereo not given)
Condition met
CN(C)CCOc1cc(-c2cn[nH]c2)ccc1NC(=O)C1COc2ccccc2O1 (stereo not given)
Condition met
COc1cc(-c2cn[nH]c2)ccc1NC(=O)C1COc2ccccc2O1 (stereo not given)
Condition met

Pending compound:
Q: Given O=C(Nc1ccc(-c2ccncc2)cc1)C1COc2ccccc2O1 (stereo not given) , state whether its inhibition at 10 µM is at least 40%.
Ans: Condition not met

Hello, the source for this data is ChEMBL document CHEMBL1142492, in case you need it.
